Biological target: Alpha-1A adrenergic receptor (Homo sapiens, UniProt P35348)
Sequence (P35348 whole entry): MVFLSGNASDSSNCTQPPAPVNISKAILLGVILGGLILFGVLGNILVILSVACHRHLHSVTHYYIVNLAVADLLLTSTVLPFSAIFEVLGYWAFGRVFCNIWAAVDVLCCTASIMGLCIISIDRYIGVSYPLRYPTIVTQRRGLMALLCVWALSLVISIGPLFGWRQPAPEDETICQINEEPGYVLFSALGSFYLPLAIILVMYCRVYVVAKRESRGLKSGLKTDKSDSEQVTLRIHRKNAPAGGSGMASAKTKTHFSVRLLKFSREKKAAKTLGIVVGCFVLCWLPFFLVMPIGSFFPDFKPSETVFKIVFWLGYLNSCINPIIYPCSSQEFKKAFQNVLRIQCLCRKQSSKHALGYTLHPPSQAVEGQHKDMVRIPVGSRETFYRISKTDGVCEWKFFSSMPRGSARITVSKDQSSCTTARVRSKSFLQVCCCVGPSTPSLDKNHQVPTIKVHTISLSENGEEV
Test: In vitro antagonism at Alpha-1A adrenergic receptor
Threshold-based label: Ki under 1 nM gives rule met, Ki not under 1 nM gives rule not met.

Dear colleague, could you confirm whether Ki of `CC1=C(C(=O)NCCCN2CCC(c3ccc(F)cc3)CC2)[C@@H](c2ccc(F)c(F)c2)CC(=O)N1` falls below 1 nM? Thanks.
rule met

Dear colleague, could you confirm whether Ki of `CC1=C(C(=O)NCCCN2CCC(C#N)(c3ccc(F)cc3F)CC2)[C@@H](c2ccc(F)c(F)c2)CC(=O)N1C` falls below 1 nM? Thanks.
rule not met

Dear colleague, could you confirm whether Ki of `CC1=C(C(=O)NCCCN2CCC(c3ccc(F)cc3C#N)CC2)[C@@H](c2ccc(F)c(F)c2)CC(=O)N1C` falls below 1 nM? Thanks.
rule met

Dear colleague, could you confirm whether Ki of `CC1=C(C(=O)NCCCN2CCC(c3ccc(F)cc3)CC2)[C@@H](c2ccc(F)c(F)c2)CC(=O)N1C` falls below 1 nM? Thanks.
rule met

Dear colleague, could you confirm whether Ki of `CC1=C(C(=O)NCCCN2CCC(C#N)(c3ccc(F)cc3)CC2)[C@@H](c2ccc(F)c(F)c2)CC(=O)N1` falls below 1 nM? Thanks.
rule not met

Dear colleague, could you confirm whether Ki of CC1=C(C(=O)NCC(C)CN2CCC(C#N)(c3ccccn3)CC2)[C@@H](c2ccc(F)c(F)c2)CC(=O)N1 (stereo not given in full) falls below 1 nM? Thanks.
rule not met

Dear colleague, could you confirm whether Ki of `CC1=C(C(=O)NCCCN2CCC(c3ccc(F)cc3C#N)CC2)[C@@H](c2ccc(F)c(F)c2)CC(=O)N1` falls below 1 nM? Thanks.
rule met

Dear colleague, could you confirm whether Ki of `CC1=C(C(=O)NCCCN2CCC(C#N)(c3ccc(F)cc3C#N)CC2)[C@@H](c2ccc(F)c(F)c2)CC(=O)N1C` falls below 1 nM? Thanks.
rule not met

Dear colleague, could you confirm whether Ki of `CC1=C(C(=O)NCCCN2CCC(C#N)(c3ccccc3C#N)CC2)[C@@H](c2ccc(F)c(F)c2)CC(=O)N1C` falls below 1 nM? Thanks.
rule not met

Dear colleague, could you confirm whether Ki of `CC1=C(C(=O)NCCCN2CCC(C#N)(c3ccc(F)cc3C#N)CC2)[C@@H](c2ccc(F)c(F)c2)CC(=O)N1` falls below 1 nM? Thanks.
rule not met

Dear colleague, could you confirm whether Ki of `CC1=C(C(=O)NCCCN2CCC(C#N)(c3ccccc3C#N)CC2)[C@@H](c2ccc(F)c(F)c2)CC(=O)N1` falls below 1 nM? Thanks.
rule not met

Dear colleague, could you confirm whether Ki of `CC1=C(C(=O)NCCCN2CCC(c3ccccc3C#N)CC2)[C@@H](c2ccc(F)c(F)c2)CC(=O)N1C` falls below 1 nM? Thanks.
rule not met

Dear colleague, could you confirm whether Ki of `CC1=C(C(=O)NCCCN2CCC(C#N)(c3ccc(F)cc3)CC2)[C@@H](c2ccc(F)c(F)c2)CC(=O)N1C` falls below 1 nM? Thanks.
rule not met
